Numbers sourced from patent US8778966B2.

system: PC-3 cells; experiment: Antiproliferative activity, Alamar Blue assay, PC-3 cells; assay type: cell-based, human; conditions: Homo sapiens, PC-3, PC3 cells, Alamar Blue; read-out: PC3 antiproliferative activity pIC50 (converted)

[
  {
    "compound": "Cc1cc2ccc([C@@](C)(C#N)C3CCc4ccccc43)cc2[nH]c1=O (single isomer, unassigned) [Compound 385]",
    "IC50 [nM]": 10000
  },
  {
    "compound": "CCc1cc2ccc(C(C)(C#N)CC3CCc4ccccc4O3)cc2[nH]c1=O (stereo not shown) [Compound 399]",
    "IC50 [nM]": 631
  },
  {
    "compound": "CCc1cc2ccc([C@](C)(C#N)Cc3cccc(C#N)c3)cc2[nH]c1=O (single isomer, unassigned) [Compound 269]",
    "IC50 [nM]": 398
  },
  {
    "compound": "CCc1cc2ccc(C(C)(C#N)Cc3ccc(C)nc3)cc2[nH]c1=O (stereo not shown) [Compound 327]",
    "IC50 [nM]": 7940
  },
  {
    "compound": "CCc1cc2ccc(C(C)(C#N)CNCc3ccc(C#N)cc3)cc2[nH]c1=O (stereo not shown) [Compound 302]",
    "IC50 [nM]": 5010
  },
  {
    "compound": "CCC[C@](C#N)(Cc1ccccc1)c1ccc2cc(CC)c(=O)[nH]c2c1 (single isomer, unassigned) [Compound 264]",
    "IC50 [nM]": 10000
  },
  {
    "compound": "CCc1cc2ccc([C@@](C)(C#N)Cc3cccc(C#CCO)c3)cc2[nH]c1=O (single isomer, unassigned) [Compound 295]",
    "IC50 [nM]": 10000
  },
  {
    "compound": "CCc1cc2ccc(C(C)(C#N)CN(C)Cc3ccccc3)cc2[nH]c1=O (stereo not shown) [Compound 189]",
    "IC50 [nM]": 3160
  },
  {
    "compound": "CCc1cc2ccc(C(C)(C#N)Cc3cccc(OCCC#N)c3)cc2[nH]c1=O (stereo not shown) [Compound 195]",
    "IC50 [nM]": 251
  },
  {
    "compound": "CCc1cc2ccc(C(C)(C#N)Cc3nc(Cl)cc(N(C)C)n3)cc2[nH]c1=O (stereo not shown) [Compound 359]",
    "IC50 [nM]": 501
  },
  {
    "compound": "CCc1cc2c(OC)cc(C(C)(C#N)Cc3nc(OC)cc(OC)n3)cc2[nH]c1=O (stereo not shown) [Compound 229]",
    "IC50 [nM]": 5010
  },
  {
    "compound": "CCc1cc2ccc(C(C)(C#N)Cc3cccc(C#CCO)c3)cc2[nH]c1=O (stereo not shown) [Compound 183]",
    "IC50 [nM]": 316
  },
  {
    "compound": "CCc1cc2ccc(C(C)(C#N)Cc3cc(C(F)(F)F)ccc3F)cc2[nH]c1=O (stereo not shown) [Compound 283]",
    "IC50 [nM]": 2000
  },
  {
    "compound": "CCc1cc2ccc(C(C)(C#N)CN3CCN(c4ccc(C#N)cn4)CC3)cc2[nH]c1=O (stereo not shown) [Compound 377]",
    "IC50 [nM]": 794
  },
  {
    "compound": "CCc1cc2ccc(C(C)(C#N)Cc3cccc(C#N)n3)cc2[nH]c1=O (stereo not shown) [Compound 329]",
    "IC50 [nM]": 501
  },
  {
    "compound": "CCc1cc2ccc([C@@](C)(C#N)Cc3cc(OC)nc(C)n3)cc2[nH]c1=O (single isomer, unassigned) [Compound 361]",
    "IC50 [nM]": 10000
  }
]
